Target: T1, SETMAR full-length WT (Homo sapiens, UniProt Q53H47 14-684)
T1 sequence: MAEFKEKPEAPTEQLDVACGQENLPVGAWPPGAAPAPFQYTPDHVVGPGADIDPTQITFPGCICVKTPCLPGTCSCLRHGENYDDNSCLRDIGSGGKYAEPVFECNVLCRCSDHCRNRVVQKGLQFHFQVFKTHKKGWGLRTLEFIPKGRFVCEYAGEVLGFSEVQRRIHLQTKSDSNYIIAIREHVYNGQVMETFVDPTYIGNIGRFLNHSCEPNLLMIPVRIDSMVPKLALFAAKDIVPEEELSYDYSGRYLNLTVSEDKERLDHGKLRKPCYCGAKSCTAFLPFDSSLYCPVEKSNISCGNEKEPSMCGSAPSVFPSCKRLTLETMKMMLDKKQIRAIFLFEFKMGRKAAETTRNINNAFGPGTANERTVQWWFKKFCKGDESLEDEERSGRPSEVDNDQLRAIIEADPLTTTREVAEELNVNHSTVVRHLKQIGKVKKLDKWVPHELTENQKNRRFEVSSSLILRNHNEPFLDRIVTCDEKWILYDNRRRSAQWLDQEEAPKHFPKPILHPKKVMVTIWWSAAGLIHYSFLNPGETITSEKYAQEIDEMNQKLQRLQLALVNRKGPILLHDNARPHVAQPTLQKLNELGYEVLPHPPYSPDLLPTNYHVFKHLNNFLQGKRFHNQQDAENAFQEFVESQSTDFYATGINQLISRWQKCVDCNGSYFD
Experiment: fluorescence anisotropy; 10 nM probe; mutant comparison series; FA and competition: 50 mM Hepes pH 7.0, 150 mM NaCl, 1 mM DTT; temperature not stated. Crystals: 50 mM Hepes pH 7.5, 150 mM NaCl, 1 mM DTT; 0.1 M Mg formate, 15% PEG3350, 20 C
Details: protein: recombinant; chain copies: 2; label: 5' rhodamine (C6 amino) on strand 2; blunt
Quantity kind: Kd (nM)
# value in nM; strip the unit string

Input line: Give Kd for the following binder: rhodamine Hsmar1 TIR probe (dsDNA) DNA 1: TTAGGTTGGTGCAAAAGTAATTGCGGTT DNA 2: AACCGCAATTACTTTTGCACCAACCTAA
Output line: 42
